Taken from patent US8575338B2.

Biological target: human BKαβ1 channels (Homo sapiens, UniProt Q12791)
Construct: expressed in transfected cells; host or cells: CHO cells (G418 and hygromycin selection)
Sequence (Q12791 whole entry): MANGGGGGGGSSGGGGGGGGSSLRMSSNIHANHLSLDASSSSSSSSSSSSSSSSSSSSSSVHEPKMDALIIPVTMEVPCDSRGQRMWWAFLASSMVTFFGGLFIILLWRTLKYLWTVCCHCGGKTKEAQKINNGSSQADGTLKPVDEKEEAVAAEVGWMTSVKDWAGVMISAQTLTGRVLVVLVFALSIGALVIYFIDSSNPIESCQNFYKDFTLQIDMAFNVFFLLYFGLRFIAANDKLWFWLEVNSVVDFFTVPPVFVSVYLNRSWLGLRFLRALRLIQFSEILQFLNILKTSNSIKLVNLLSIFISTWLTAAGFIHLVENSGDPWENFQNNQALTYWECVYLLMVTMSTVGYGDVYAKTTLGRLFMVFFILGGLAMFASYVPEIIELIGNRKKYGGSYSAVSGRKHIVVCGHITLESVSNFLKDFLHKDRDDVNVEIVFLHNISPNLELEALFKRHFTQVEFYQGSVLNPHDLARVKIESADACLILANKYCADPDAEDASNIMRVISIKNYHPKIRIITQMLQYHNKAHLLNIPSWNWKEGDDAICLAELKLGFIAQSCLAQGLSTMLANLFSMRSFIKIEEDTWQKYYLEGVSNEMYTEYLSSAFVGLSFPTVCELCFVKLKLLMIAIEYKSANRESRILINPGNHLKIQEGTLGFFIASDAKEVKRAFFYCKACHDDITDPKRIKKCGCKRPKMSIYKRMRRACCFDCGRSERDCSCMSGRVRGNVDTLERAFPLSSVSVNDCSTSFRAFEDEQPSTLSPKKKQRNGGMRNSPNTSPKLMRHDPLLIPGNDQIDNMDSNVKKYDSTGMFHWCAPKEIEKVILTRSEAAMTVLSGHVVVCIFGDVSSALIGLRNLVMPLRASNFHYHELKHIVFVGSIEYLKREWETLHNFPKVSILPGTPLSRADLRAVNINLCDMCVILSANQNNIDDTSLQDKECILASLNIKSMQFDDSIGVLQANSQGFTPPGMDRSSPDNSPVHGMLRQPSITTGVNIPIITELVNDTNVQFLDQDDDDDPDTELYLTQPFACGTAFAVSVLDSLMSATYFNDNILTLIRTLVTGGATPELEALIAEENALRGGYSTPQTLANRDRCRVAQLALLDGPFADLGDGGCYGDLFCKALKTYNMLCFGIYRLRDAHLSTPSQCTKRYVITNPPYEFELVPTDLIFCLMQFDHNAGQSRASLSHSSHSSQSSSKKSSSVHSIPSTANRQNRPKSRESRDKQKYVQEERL
Sequence (Q16558 whole entry partner): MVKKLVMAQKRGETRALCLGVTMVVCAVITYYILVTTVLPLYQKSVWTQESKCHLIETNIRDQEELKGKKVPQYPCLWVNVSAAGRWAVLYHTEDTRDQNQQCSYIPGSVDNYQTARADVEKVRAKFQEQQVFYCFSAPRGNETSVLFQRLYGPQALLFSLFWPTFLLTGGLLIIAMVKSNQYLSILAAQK
Experiment: BK current in CHO cells expressing human BKαβ1 (PatchXpress whole-cell patch clamp), EC100
Format: cell-based
Conditions: drug concentration causing 100% increase of BK current
Below, each of the compounds is paired with its reported EC100 value.
Report only the number, with the unit µM understood.

Recorded EC100, per entry:
>>> df
                                   compound  measure  recorded_measurement
0  COCCN(CC(=O)O)c1cc(-c2ccc(F)cc2)nc(-c2ccc(Cl)c(F)c2)n1 [Example 646]    EC100                  1.23
1  CCOc1cccc(-c2nc(OC3(C(=O)[O-])CC3)cc(N3CCC[C@H]3COC)n2)c1.[Na+] [Example 65]    EC100                  1.43
2  O=C([O-])C1(Oc2cc(N3CCC(CCO)CC3)nc(-c3ccc(Cl)c(F)c3)n2)CCCC1.[Na+] [Example 59]    EC100                  0.51
3  CCO[C@H]1CCCN(c2cc(OC3(C(=O)[O-])CC3)nc(-c3ccc(Cl)c(F)c3)n2)C1.[Na+] [Example 50]    EC100                  1.05
4  COC[C@@H]1CCCN1c1cc(OC2(C(=O)[O-])CC2)nc(-c2ccc(Cl)c(F)c2)n1.[Na+] [Example 36]    EC100                  0.59
5  CCOCC1CCN(c2nc(-c3ccc(Cl)cc3)nc(OC3(C(=O)[O-])CC3)c2F)CC1.[Na+] [Example 1131]    EC100                  0.23

Query: Form entry - test system: human BKαβ1 channels (Homo sapiens, UniProt Q12791); read-out: EC100; compound: COCC1CCN(c2cc(OC(C)(C)C(=O)[O-])nc(-c3ccc(Cl)c(F)c3)n2)CC1.[Na+] [Example 17]
Result: 2.47

Query: Form entry - test system: human BKαβ1 channels (Homo sapiens, UniProt Q12791); read-out: EC100; compound: CCCOC1CCN(c2nc(OC3(C(=O)O)CC3)cc(-c3ccc(C)c(Cl)c3)n2)CC1 [Example 1148]
Result: 0.13

Query: Form entry - test system: human BKαβ1 channels (Homo sapiens, UniProt Q12791); read-out: EC100; compound: CC(C)COC1CCN(c2nc(OC3(C(=O)O)CC3)cc(-c3ccc(Cl)cc3)n2)CC1 [Example 1182]
Result: 1.03

Query: Form entry - test system: human BKαβ1 channels (Homo sapiens, UniProt Q12791); read-out: EC100; compound: Cc1cc(Cl)ccc1-c1nc(OC2(C(=O)[O-])CC2)nc(-c2ccc(Cl)cc2)n1.[Na+] [Example 1088]
Result: 0.14

Query: Form entry - test system: human BKαβ1 channels (Homo sapiens, UniProt Q12791); read-out: EC100; compound: COCCCC1CCN(c2nc(OC3(C(=O)[O-])CC3)cc(-c3cc(C)c(Cl)s3)n2)CC1.[Na+] [Example 1215]
Result: 0.39

Query: Form entry - test system: human BKαβ1 channels (Homo sapiens, UniProt Q12791); read-out: EC100; compound: O=C([O-])C1(Oc2cc(-c3nccs3)nc(-c3ccc(Cl)c(F)c3)n2)CC1.[Na+] [Example 559]
Result: 0.36

Query: Form entry - test system: human BKαβ1 channels (Homo sapiens, UniProt Q12791); read-out: EC100; compound: CC(C)(Oc1cc(-c2ccc(F)cc2)nc(-c2ccc(Cl)c(F)c2)n1)C(=O)[O-].[Na+] [Example 474]
Result: 0.36

Query: Form entry - test system: human BKαβ1 channels (Homo sapiens, UniProt Q12791); read-out: EC100; compound: COc1ccc(F)c(-c2cc(OC3(C(=O)[O-])CCOCC3)nc(-c3ccc(Cl)c(F)c3)n2)c1.[Na+] [Example 572]
Result: 1.07

Query: Form entry - test system: human BKαβ1 channels (Homo sapiens, UniProt Q12791); read-out: EC100; compound: CCOc1cc(F)cc(-c2nc(-c3ccc(F)cc3)nc(OC3(C(=O)[O-])CC3)c2C)c1.[Na+] [Example 978]
Result: 0.12

* * *

Below, each of the compounds is paired with its reported log10 of EC100 value.
Biological target: human BKαβ1 channels (Homo sapiens, UniProt Q12791)
Construct: expressed in transfected cells; host or cells: CHO cells (G418 and hygromycin selection)
Assay: BK current in CHO cells expressing human BKαβ1 (PatchXpress whole-cell patch clamp), EC100
Type: cell-based
Conditions: drug concentration causing 100% increase of BK current
Short version: log10 scale, EC100, µM.

Recorded log10 of EC100, per entry:
>>> print(df.to_string())
                                test_smiles                             tested_target  recorded_measurement
0  CCCOC1CCN(c2nc(OC3(C(=O)O)CC3)cc(-c3ccc(F)c(C(F)(F)F)c3)n2)CC1  human BKαβ1 channels (Homo sapiens, UniProt Q12791)                 -0.47
1  O=C([O-])C1(Oc2cc(-c3ccc(Cl)s3)nc(N3CCc4ccc(F)cc4C3)n2)CC1.[Na+]  human BKαβ1 channels (Homo sapiens, UniProt Q12791)                 -0.70
2  Cc1c(OC2(C(=O)O)CC2)nc(-c2ccc(Cl)cc2)nc1N1CCC(OCC2CC2)CC1  human BKαβ1 channels (Homo sapiens, UniProt Q12791)                 -0.38
3  COCCOc1cc(F)ccc1-c1cc(OC2(C(=O)[O-])CC2)nc(-c2ccc(F)c(F)c2)n1.[Na+]  human BKαβ1 channels (Homo sapiens, UniProt Q12791)                 -0.31
4  O=C([O-])C1(Oc2cc(-c3ccccc3O)nc(-c3ccc(Cl)c(F)c3)n2)CC1.[Na+]  human BKαβ1 channels (Homo sapiens, UniProt Q12791)                 -0.70
5  O=C(O)C1(Oc2cc(OCc3ccc(F)cc3)nc(-c3ccc(Cl)cc3)n2)CC1  human BKαβ1 channels (Homo sapiens, UniProt Q12791)                 -0.92

Query: Tell me the measured log10 of EC100 of COc1ccccc1-c1nc(OC(C)(C)C(=O)[O-])nc(-c2ccc(Cl)c(F)c2)n1.[Na+] , please.
Result: 0.28

Query: Tell me the measured log10 of EC100 of O=C(O)C1(Oc2cc(-c3ccc(Cl)cc3)nc(N3CCc4ccc(F)cc4C3)n2)CC1 , please.
Result: -1.70

* * *

Below, each of the compounds is paired with its reported EC100 value.
Target: human BKαβ1 channels (Homo sapiens, UniProt Q12791)
Construct: expressed in transfected cells; host or cells: CHO cells (G418 and hygromycin selection)
Assay: BK current in CHO cells expressing human BKαβ1 (PatchXpress whole-cell patch clamp), EC100
Type: cell-based
Details: drug concentration causing 100% increase of BK current
Report only the number, with the unit µM understood.

Recorded EC100, per entry:
                                test_smiles  measure  unit_info  recorded_measurement
0  COCCC1CCN(c2nc(OC3(C(=O)O)CC3)cc(-c3cc(C)c(Cl)s3)n2)CC1    EC100         µM                  0.96
1  COC[C@@H]1CCCN1c1cc(OC2(C(=O)[O-])CC2)nc(-c2cc(Cl)c(Cl)s2)n1.[Na+]    EC100         µM                  0.78
2  CN(Cc1cccc(F)c1)c1cc(OC2(C(=O)[O-])CC2)nc(-c2ccc(F)cc2)n1.[Na+]    EC100         µM                  0.11
3  COCC1CCN(c2nc(OC3(C(=O)O)CC3)cc(-c3cc(Cl)c(Cl)s3)n2)CC1    EC100         µM                  0.19

Query: Tell me the measured EC100 of Cc1c(OC2(C(=O)[O-])CC2)nc(-c2ccc(F)cc2)nc1-c1ccc(Cl)s1.[Na+] , please.
Result: 0.1

Query: Tell me the measured EC100 of COCCC1CCN(c2nc(OC3(C(=O)O)CC3)cc(-c3cc(Cl)c(Cl)s3)n2)CC1 , please.
Result: 0.15

Query: Tell me the measured EC100 of N#Cc1ccc(-c2cc(OC3(C(=O)[O-])CC3)nc(-c3ccc(Cl)c(F)c3)n2)cc1.[Na+] , please.
Result: 0.33

Query: Tell me the measured EC100 of O=C([O-])C1(Oc2cc(N3CCc4cc(F)ccc4C3)nc(-c3ccc(Cl)cc3)n2)CC1.[Na+] , please.
Result: 0.11

Query: Tell me the measured EC100 of O=C([O-])C1(Oc2cc(-c3ccc(F)cc3O)nc(-c3ccc(Cl)c(F)c3)n2)CC1.[Na+] , please.
Result: 0.04
